Assay: Equilibrium solubility of ziprasidone salts in 40% (w/v) aqueous HPBCD, HPLC
Type: physicochemical
Conditions: 40% (w/v) HPBCD in water, stirred four days at ambient temperature; calculated as free base
Text: Many different experimental protocols can be envisioned and implemented. […] HPBCD was purchased commercially from Wacker Chemie.
Where a name gives a salt, the structure may show the parent alone.
Test readout: Solubility in 40% HPBCD (μgA/ml)
Report the figure in μgA/ml without appending any unit label.

>  <Compound>
O=C1Cc2cc(CCN3CCN(c4nsc5ccccc45)CC3)c(Cl)cc2N1 [hydrochloride, ziprasidone]

>  <Units of measure>
μgA/ml

>  <Recorded number>
2.4

$$$$
>  <Compound>
O=C1Cc2cc(CCN3CCN(c4nsc5ccccc45)CC3)c(Cl)cc2N1 [tartrate, Ziprasidone Tartrate]

>  <Units of measure>
μgA/ml

>  <Recorded number>
12.4

$$$$
>  <Compound>
O=C1Cc2cc(CCN3CCN(c4nsc5ccccc45)CC3)c(Cl)cc2N1 [aspartate, ziprasidone]

>  <Units of measure>
μgA/ml

>  <Recorded number>
1.3

$$$$
>  <Compound>
O=C1Cc2cc(CCN3CCN(c4nsc5ccccc45)CC3)c(Cl)cc2N1 [esylate, Ziprasidone Esylate]

>  <Units of measure>
μgA/ml

>  <Recorded number>
13.7

$$$$

--- query ---
Item under review: O=C1Cc2cc(CCN3CCN(c4nsc5ccccc45)CC3)c(Cl)cc2N1 [mesylate, Ziprasidone Mesylate] . Reported Solubility in 40% HPBCD?
17.3
